molecular target: human DOR (Homo sapiens, UniProt P41143); experiment: Competition binding assay, [3H]diprenorphine, CHO-hDOR cell membranes; conditions: ratio of Ki values
Label label 1 when selectivity DOR/MOR is strictly below 40; at or above that, label label 0.

[
  {
    "Cpd Smiles": "CO[C@@]12CCC[C@@H]3Oc4c(O)ccc5c4[C@@]31CCN(C)[C@@H]2C5",
    "Assayed System": "human DOR (Homo sapiens, UniProt P41143)",
    "Assigned Category": "label 1"
  },
  {
    "Cpd Smiles": "CO[C@@]12CCC(=O)[C@]3(C)Oc4c(O)ccc5c4[C@@]31CCN(C)[C@@H]2C5",
    "Assayed System": "human DOR (Homo sapiens, UniProt P41143)",
    "Assigned Category": "label 0"
  },
  {
    "Cpd Smiles": "CN1CC[C@]23c4c5ccc(O)c4O[C@H]2CCC[C@@]3(O)[C@H]1C5",
    "Assayed System": "human DOR (Homo sapiens, UniProt P41143)",
    "Assigned Category": "label 0"
  },
  {
    "Cpd Smiles": "CN1CC[C@]23c4c5ccc(O)c4O[C@H]2C(=O)CC[C@@]3(OCc2ccccc2)[C@H]1C5",
    "Assayed System": "human DOR (Homo sapiens, UniProt P41143)",
    "Assigned Category": "label 1"
  },
  {
    "Cpd Smiles": "CO[C@@]12CCC(=O)[C@@H]3Oc4c(O)ccc5c4[C@@]31CCN(C)[C@@H]2C5",
    "Assayed System": "human DOR (Homo sapiens, UniProt P41143)",
    "Assigned Category": "label 1"
  }
]

====

biological target: human KOR (Homo sapiens)
# Ki listing for each entry below

[
  {
    "Cpd Smiles": "CN1CC[C@]23c4c5ccc(O)c4O[C@H]2CCC[C@@]3(O)[C@H]1C5",
    "Ki [nM]": 21.6
  },
  {
    "Cpd Smiles": "CO[C@@]12CCC[C@@H]3Oc4c(O)ccc5c4[C@@]31CCN(C)[C@@H]2C5",
    "Ki [nM]": 3.99
  },
  {
    "Cpd Smiles": "CN1CC[C@]23c4c5ccc(O)c4O[C@H]2C(=O)CC[C@@]3(OCc2ccccc2)[C@H]1C5",
    "Ki [nM]": 1.27
  },
  {
    "Cpd Smiles": "CO[C@@]12CCC(=O)[C@]3(C)Oc4c(O)ccc5c4[C@@]31CCN(C)[C@@H]2C5",
    "Ki [nM]": 15.1
  },
  {
    "Cpd Smiles": "CO[C@@]12CCC[C@]3(C)Oc4c(O)ccc5c4[C@@]31CCN(C)[C@@H]2C5",
    "Ki [nM]": 7.92
  },
  {
    "Cpd Smiles": "CO[C@@]12CCC(=O)[C@@H]3Oc4c(O)ccc5c4[C@@]31CCN(C)[C@@H]2C5",
    "Ki [nM]": 10.1
  },
  {
    "Cpd Smiles": "CN1CC[C@]23c4c5ccc(O)c4O[C@H]2CCC[C@@]3(OCc2ccccc2)[C@H]1C5",
    "Ki [nM]": 0.85
  }
]

====

# selectivity KOR/MOR listing for each entry below
molecular target: human KOR (Homo sapiens); assay: Competition binding assay, [3H]HS665, CHO-hKOR cell membranes; conditions: ratio of Ki values

[
  {
    "Compound": "CO[C@@]12CCC[C@@H]3Oc4c(O)ccc5c4[C@@]31CCN(C)[C@@H]2C5 [Compound 2a]",
    "selectivity KOR/MOR": 17
  },
  {
    "Compound": "CO[C@@]12CCC(=O)[C@@H]3Oc4c(O)ccc5c4[C@@]31CCN(C)[C@@H]2C5 [Compound 2, 14-O-methyloxymorphone]",
    "selectivity KOR/MOR": 32
  },
  {
    "Compound": "CN1CC[C@]23c4c5ccc(O)c4O[C@H]2CCC[C@@]3(OCc2ccccc2)[C@H]1C5 [Compound 3a]",
    "selectivity KOR/MOR": 18
  },
  {
    "Compound": "CO[C@@]12CCC(=O)[C@]3(C)Oc4c(O)ccc5c4[C@@]31CCN(C)[C@@H]2C5 [Compound 4, 14-methoxymetopon]",
    "selectivity KOR/MOR": 60
  },
  {
    "Compound": "CN1CC[C@]23c4c5ccc(O)c4O[C@H]2C(=O)CC[C@@]3(OCc2ccccc2)[C@H]1C5 [Compound 3, 14-O-benzyloxymorphone]",
    "selectivity KOR/MOR": 2.8
  },
  {
    "Compound": "CN1CC[C@]23c4c5ccc(O)c4O[C@H]2CCC[C@@]3(O)[C@H]1C5 [Compound 1a]",
    "selectivity KOR/MOR": 13
  }
]

From: paper PMC5706069
